Values from patent US9315443B2

test system: ALA and ALAME producing E. coli strain BL21 (DE3) T1r pBT10 pACYC:Duet[TAcv]; experiment: Oxygen transfer rate (OTR) during biotransformation with various ion exchangers (Example 4); assay type: cell-based; conditions: 150 mL lauric acid methyl ester with ion exchanger (10% w/w) added to the fermentation broth
metric name: course of the OTR after addition of the ion exchanger

# substance smiles, target of assay, meas value
data = [
    ("CCCCCCCCCCCCCCCCCC(=O)O", "ALA and ALAME producing E. coli strain BL21 (DE3) T1r pBT10 pACYC:Duet[TAcv]", "much shallower"),
    ("CCCCCCCCCCCCCCCC(=O)O", "ALA and ALAME producing E. coli strain BL21 (DE3) T1r pBT10 pACYC:Duet[TAcv]", "much shallower"),
]

---

system: ALA and ALAME producing E. coli strain BL21 (DE3) T1r pBT10 pACYC:Duet[TAcv]; experiment: Oxygen transfer rate (OTR) during biotransformation with various ion exchangers (Example 4); format: cell-based; conditions: 150 mL lauric acid methyl ester with ion exchanger (10% w/w) added to the fermentation broth
metric name: toxicity to cells concluded from the OTR

# compound, metric name, meas value
records = [
    ("CCCCCCCCCCCCCCCC(=O)O [palmitic acid]", "toxicity to cells concluded from the OTR", "far less toxic"),
    ("CCCCCCCCCCCCCCCCCC(=O)O [stearic acid]", "toxicity to cells concluded from the OTR", "far less toxic"),
]

---

system: E. coli BL21(DE3); test: CFU determination, toxicity of liquid cation exchangers (Example 2); settings: Escherichia coli
Number of CFUs after 22 or 24 h relative to t = 0 h values by entry
metric name: Number of CFUs after 22 or 24 h relative to t = 0 h (%)

# compound, readout unit, meas value
rows = [
    ("CCCCC(CC)COP(=O)(O)OCC(CC)CCCC (stereo not shown) [DEHPA, di(2-ethylhexyl)phosphoric acid, reference compound]", "%", 0),
    ("CCCCCCCCCCCC(=O)O", "%", 1.2),
    ("CCCCC(CC)C(=O)O (stereo not shown)", "%", 0),
    ("CC(C)CCCCCC(=O)O", "%", 0),
]
